Test system: MDA-MB-231 breast cancer cells
Run Description: MTT cell viability assay, MDA-MB-231
Type: cell-based
Measurement Context: Homo sapiens, MDA-MB-231; Table 3 batch studies; 48-hour MTT; read-out: MDA-MB-231 IC50, 48-hour MTT

- Structure: "c1ccc2c(c1)nc(-c1ccc(OCCN3CCCCC3)cc1)n1nccc21"
  Result Unit: "µM"
  IC50: 11.3
